# Tested on: MDA-MB-468 breast
# assay_summary: NCI-60 one-dose screen, 48 h (100 = growth as untreated, 0 = no growth, -100 = all killed)
# protocol_conditions: 10 µM unless noted
The panel holds about 83,000 compounds, 20% with a hit somewhere; the sample as a whole holds those more often.
Listing of recorded growth by entry.
Give the number; % is assumed, so skip it.

Consider the worked cases shown below.
> print(dat)
                                   molecule  unit.of.measure  reading
1  CC1(C)CC(=O)C2=C(C1)OC1=C(C(=O)CC(C)(C)C1)C2c1ccc(OCc2cn(-c3ccc(F)cc3F)nn2)cc1                %      103
2  CS(=O)(=O)Nc1cc(-c2cc3ncc(C#N)c(Nc4ccc(Oc5ccccc5)c(Cl)c4)c3s2)cnc1Cl                %     43.3
3  COc1ccccc1-n1cc(C#N)c(N)c1C(=O)c1ccc(Cl)cc1                %     51.6

# query: growth | item `COc1ccc(C(=O)c2cc(OC)c(OC)c(OC)c2OC)cc1O` | system: MDA-MB-468 breast 29.7

# query: growth | item `COc1cc(/C=C2\C(=O)Nc3ccccc32)ccc1OCc1ccc(F)cc1` | system: MDA-MB-468 breast 102

# query: growth | item `O=C(Nc1ccc(OS(=O)(=O)c2ccccc2)cc1)C1CCCCC1` | system: MDA-MB-468 breast 103

# query: growth | item CCN1C(=O)N(CC)C2C1NN=c1s/c(=C\c3ccc([N+](=O)[O-])cc3)c(=O)n12 (configuration not stated) | system: MDA-MB-468 breast 7.94
